Tested on: MEXF 1737
Test: CellTiter-Blue Cell Viability Assay (Example 2), melanoma
Assay type: cell-based, human
Conditions: read-out: Relative IC50
Assay readout: IC50 (nM)

> print(dat)
                                   molecule        tgt  unit.annotation  recorded.measurement
1  CC(C)(O)Cn1nc(-c2ccccc2)c2c(Cl)c(-c3ccccc3)nnc21 [Compound 85]  MEXF 1737               nM                   799

* * *

Tested on: 10 human tumor cell lines
Experiment: CellTiter-Blue 2D monolayer assay (Example 1), whole panel
Assay type: cell-based
Conditions: geometric mean over 10 cell lines; read-out: Geometric mean Rel. IC50
Experimental: Compound 85 was assessed in 10 human tumor cell lines (see Table 3) for anti-cancer activity in vitro using a CellTiter-Blue® based 2D monolayer assay. CellTiter-Blue® Cell Viability Assay: Tumor cells were grown at 37° C. in a humidified atmosphere with 5% CO2 in RPMI medium, supplemented with 10% (v/v) fetal calf serum and 50 μg/ml gentamicin (140 μl/well). […] Viability of cells was quantified using the CellTiter-Blue® cell viability assay (Promega G8081). […]
pIC50: −log10 of the molar value.
Assay readout: pIC50

> print(dat)
                            smiles.notation                        tgt  assay.readout  recorded.measurement
1  CC(C)(O)Cn1nc(-c2ccccc2)c2c(Cl)c(-c3ccccc3)nnc21  10 human tumor cell lines          pIC50                  6.03
